SYSTEM_UNDER_TEST: androgen receptor (AR) (Homo sapiens, UniProt P10275, T878A)
Construct: endogenous in cells; host or cells: LNCAP
Sequence (P10275 1-920 T878A): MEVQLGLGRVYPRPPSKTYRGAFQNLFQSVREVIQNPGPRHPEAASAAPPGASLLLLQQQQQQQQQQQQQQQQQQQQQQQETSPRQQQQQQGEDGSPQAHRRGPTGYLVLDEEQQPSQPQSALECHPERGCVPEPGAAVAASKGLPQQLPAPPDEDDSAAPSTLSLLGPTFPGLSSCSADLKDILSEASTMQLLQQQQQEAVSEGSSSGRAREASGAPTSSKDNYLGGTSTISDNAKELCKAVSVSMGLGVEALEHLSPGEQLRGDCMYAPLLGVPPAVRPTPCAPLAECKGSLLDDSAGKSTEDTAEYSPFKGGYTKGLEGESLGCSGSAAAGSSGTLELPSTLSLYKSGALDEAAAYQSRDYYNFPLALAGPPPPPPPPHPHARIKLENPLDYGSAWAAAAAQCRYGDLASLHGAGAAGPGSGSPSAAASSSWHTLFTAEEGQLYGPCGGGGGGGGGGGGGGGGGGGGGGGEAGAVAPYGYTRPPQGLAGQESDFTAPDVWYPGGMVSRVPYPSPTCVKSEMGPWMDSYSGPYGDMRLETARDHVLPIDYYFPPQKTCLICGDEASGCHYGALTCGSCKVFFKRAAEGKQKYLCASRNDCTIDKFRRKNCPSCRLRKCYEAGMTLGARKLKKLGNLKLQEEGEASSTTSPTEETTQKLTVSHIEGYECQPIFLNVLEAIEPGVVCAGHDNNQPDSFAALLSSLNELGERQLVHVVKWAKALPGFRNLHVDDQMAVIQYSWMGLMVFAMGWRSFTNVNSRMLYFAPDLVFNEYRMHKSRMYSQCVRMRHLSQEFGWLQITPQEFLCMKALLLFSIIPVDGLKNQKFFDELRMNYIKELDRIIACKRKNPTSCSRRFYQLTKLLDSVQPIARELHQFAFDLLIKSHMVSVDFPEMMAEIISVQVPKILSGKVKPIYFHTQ
ASSAY_NOTES: AR degradation activity in LNCAP cells (Western blot)
Type: cell-based
PARTICULARS: LNCAP cell line, 24 hours after administration; DC50 = concentration for 50% target protein degradation
REPORTED_ENDPOINT: DC50
Record the result as a number with its unit.

Q) Consider the molecule CC1(C)C(NC(=O)c2ccc(N3CCC(CN4CCN(c5cc6c(cc5F)C(=O)N(C5CCC(=O)NC5=O)C6=O)CC4)CC3)nc2)C(C)(C)C1Oc1ccc(C#N)c2ncccc12 (centres unmarked) and give its measured DC50.
A) 1.4 nM

Q) Need DC50 of CC1(C)C(NC(=O)c2ccc(N3CCC(CN4CCN(c5cc6c(cc5F)C(=O)N(C5CCC(=O)NC5=O)C6=O)CC4)CC3)nn2)C(C)(C)C1Oc1ccc(C#N)c2ncccc12 (centres unmarked) , thanks.
A) 0.4 nM

Q) Request the reported DC50 associated with CC1(C)C(NC(=O)c2ccc(N3CCC(CN4CCN(c5ccc6c(c5)C(=O)N(C5CCC(=O)NC5=O)C6=O)CC4)CC3)cc2)C(C)(C)C1Oc1ccc(C#N)c2ncccc12 (centres unmarked)
A) 2.2 nM

Q) # DC50 lookup, item CC1(C)C(NC(=O)c2cnc(N3CCC(CN4CCN(c5cc6c(cc5F)C(=O)N(C5CCC(=O)NC5=O)C6=O)CC4)CC3)nc2)C(C)(C)C1Oc1ccc(C#N)c2ncccc12 (centres unmarked)
A) 0.6 nM

Q) Fill in: DC50 of CC1(C)C(NC(=O)c2ccc(N3CCC(CN4CCN(c5ccc6c(c5)CN([C@H]5CCC(=O)NC5=O)C6=O)CC4)CC3)nn2)C(C)(C)C1Oc1ccc(C#N)c2ncccc12 (some centres unmarked) is ___
A) 0.6 nM
